Taken from a melting point compilation (Tetko et al.; mined from patent text by program, amines drawn as free bases though some values may be those of a salt).

Would you kindly list melting point for each of these compounds?

Query Nc1cc(-n2cc(C(=O)O)c(=O)c3cc(F)c(F)c(Cl)c32)c(Cl)cc1F yields melting point of 237 to 242 °C

Lab book: melting point of CN(Cc1ccc(CCn2cnc3cc(-c4ccc(Cl)cc4)sc3c2=O)cc1)S(C)(=O)=O noted as 230 to 232 °C

Entry CNC(=NC#N)NCCSCc1nsc(NC(=N)N)n1 , melting point reported as 198 to 199 °C

Sample N=C(Nc1ccccc1-c1ccccc1)C1CCCCC1 ; melting point observed: 148 to 150 °C

Data point: OC1(c2ccncc2)c2ccccc2CCc2ccccc21 ; melting point = 174 to 177 °C

Kindly note the recorded melting point for CC(=O)OC(c1nc(C)c(C)s1)(c1nc(C)c(C)s1)C(F)(F)F , which is 163 to 164 °C

----------
Record form. Attribute: melting point. Fill in for each entry.

In plain terms, CC#CCN=C(NC#N)NCCSCc1[nH]cnc1C has a documented melting point of 128 to 130 °C

Given item COc1ccc(C2=NNC(=O)CC2)cc1Cl , the value recorded as its melting point is 194 to 195 °C

COc1ccc(C(=O)Cc2cc(OC)cc(Br)c2OC)cc1 has a reported melting point of 91 to 93 °C

Query CCOC(=O)C(C)(C)OCc1oc(-c2ccc(Cl)cc2)nc1C yields melting point of 75 to 76 °C

Reported melting point ( Nc1ncccc1C(=O)NCCCOc1ccc(-c2ccc(=O)[nH]n2)cc1 ) = 232 to 234 °C

In plain terms, O=C(O)c1ccc(OCCCOCCCCCCBr)cc1 has a documented melting point of 72 to 75 °C

GET /value?item= COc1ncccc1-c1cnn2ccc(N3CCN(C(=O)OC(C)C)CC3)nc12 &field=melting point returns 131 to 132 °C

Measured melting point, c1ccc(CN2CCC(Cc3nc4ccccc4[nH]3)CC2)cc1 : 222 °C

Reported melting point for CC1(O)CC(=O)OC(c2ccc(-c3ccccc3)cc2)C1Br (stereo not given) was 173 to 176 °C

melting point in this record for O=C(O)C1=Cc2cc(OCc3ccc(F)cc3)ccc2S(=O)(=O)CC1 : 270 to 273 °C

----------
quantity.measured: melting point

For COC1=C(OC)C(=O)C2=C(CCC(CCOc3ccc4ccccc4n3)CC2)C1=O the compound record lists melting point as 134 to 136 °C

The recorded melting point for COc1cc(-c2cc(F)cc(C#N)c2)cc2c1NC(=O)OC2(C)C is 252 to 253 °C

Data point: O=C1C(=O)c2ccc(Br)cc2C2=C1SCC1(CCN(CC(O)COc3ccc4cc(Br)ccc4c3)CC1)O2 (stereo not drawn) ; melting point = 104 to 105 °C

// sample CC(C)(C)OC(=O)N1CCC(c2ccc3nc(-c4ccc(C(F)(F)F)cc4)oc3c2)CC1 , its melting point was 174 to 179 °C

GET /value?item= CCN(C(=O)n1nnc2cc(C)cc(C)c21)c1ccccc1 &field=melting point returns 90 °C

Form: compound = COc1ccccc1-n1c(-c2ccc(C=C(C#N)C#N)s2)ccc1-c1ccc(C(C#N)=C(C#N)C#N)s1 ; melting point = > 300 °C

So for COC1Nc2c(O)cccc2C(=O)N2CCCC12 (stereo not drawn) , the logged melting point turned out to be 150 to 153 °C

GET /value?item= CCCCCCCCCCCCCCCCCCCCOC(=O)Cl &field=melting point returns 33 to 34 °C

----------
quantity.measured: melting point

The value of melting point measured for the molecule CC(C)=CCN1c2ccccc2NC(=O)C1(C)C turned out to be 146 to 147 °C

# molecule Cc1ccc(S(=O)(=O)N[C@@H](C)C(=O)O)cc1 ; its melting point = 134 to 135 °C

Memo: CCCCc1nc2ccnc(Cl)c2n1Cc1ccc(-c2ccccc2C#N)cc1 , reported melting point: 134 °C

// Cc1ccc(-c2ccccc2)cc1Cn1c(Cl)nn(C)c1=O : melting point value = 116 °C

Reported melting point for COC(=O)CCCCCCCCCCCCc1ccccc1 was 30.5 to 31.5 °C

Reported melting point ( O=C=Nc1ccc(OC(=O)COCCOCC(=O)Oc2ccc(N=C=O)cc2)cc1 ) = 139 to 142 °C

Record Nc1sc2c(c1C(=O)c1ccc3ccccc3c1)CCN(Cc1ccccc1Cl)C2 , field melting point: 169 to 171 °C

Entry Cc1nc2ccccc2c2c1OC(C)CN2 (stereo not drawn) — recorded melting point = 169 to 170 °C

----------
Assignment: determine reported melting point for the given compounds.

Lab book: melting point of O[C@@H]1CN(CC2CC2)CC[C@@H]1c1ccccc1 (relative stereo) noted as 94 to 97 °C

For reference, reported melting point for O=C(c1ccc(Br)cc1)N1CCN(c2ccncc2)CC1 stands at 128 to 129 °C

Input CC(C)(C)OC(=O)NCc1cc(N)ccc1Cl . Output melting point: 75 to 77 °C

Summary for this compound, O=[N+]([O-])c1cc(N=c2sc(=S)n3n2CCCC3)c(F)cc1Cl : melting point is 171 to 173 °C

In plain terms, C/C(=C/c1ccc(C(=O)O)cc1)c1cc2c(cc1C)CCC(C)(C)CC2 has a documented melting point of 223 to 225 °C

Lab book: melting point of S=c1[nH]c2ccc(-c3cccc(Cl)c3)cc2n1Cc1ccccc1 noted as 211 to 212 °C

// field: melting point; key: Cc1[nH]nc(Oc2ncc(C(F)(F)F)cc2Cl)c1C ; value = 102 to 103 °C

Given item Oc1c(Br)c(Br)c(F)c(Br)c1Br , the value recorded as its melting point is 178 to 180 °C

Lab note: measured melting point of CCC(=O)Nc1cccc(NC(=O)C(C)C)c1 was 174 to 175 °C

Entry Cc1sc(NC=O)c(C#N)c1Cl — recorded melting point = 258 °C

For reference, reported melting point for CC(C)c1cccc(C(C)C)c1NC(=O)CS(=O)(=O)CCCl stands at 166 to 168 °C

Record summary for Cc1nn(-c2ccc(Cl)cc2)cc1C(=O)N(CC(=O)O)c1ccc(OCC(C)(C)C)c(C#N)c1 : reported melting point = 186 to 189 °C

Looking up O=C(O)CCCC(=O)c1cccc([N+](=O)[O-])c1 , I see its melting point listed as 135 to 137 °C

The reported value for CC(C)(CCNS(=O)(=O)c1ccc(Cl)cc1)CC(=O)O in terms of melting point is 107 to 108 °C

What the record says about CC(c1ccccc1)c1n[nH]c2c1c(=O)n(-c1cccc(C(F)(F)F)c1)c1ncccc21 (stereo not given) : melting point is 235 to 237 °C

Sample Cc1oc(-c2ccccc2)nc1COc1ccc(COc2ncccc2C#N)cn1 ; melting point observed: 117 to 118 °C

Measured melting point, O=C(c1cccc(C(F)(F)F)c1)c1cc2c(F)ccc(Br)c2o1 : 114 to 115 °C

For this compound ( CC(=O)COc1cc(C)c(Br)c(C)c1Cc1ccc(C(C)C)cc1 ), measured melting point is 93 to 94 °C

Summary for this compound, Cc1cc(=O)n(C)c2c1C(=O)CC(c1ccsc1)C2 (stereo not given) : melting point is 156 to 157 °C

Consider CCC(CC)(CCCS(N)(=O)=O)COc1nn2ncnc2cc1C . Its measured melting point is 157 to 158 °C

compound CCOC(=O)Nc1c(C)cc(Cc2cnc(N)nc2N)cc1C , melting point observed: 192 to 193 °C

Form: compound = CC(=O)ON=C1Cc2ccccc2N(C(N)=O)c2ccccc21 ; melting point = 176 to 177 °C

GET /value?item= CC(C)(C)c1cc(CSCCC(=O)NCCCCCCNC(=O)CCSCc2cc(C(C)(C)C)c(O)c(C(C)(C)C)c2)cc(C(C)(C)C)c1O &field=melting point returns 126 to 130 °C

For record ON=C1CN2CCC1CC2 the listed melting point is 117 to 119 °C

// ClC1=NC(C2CC2)Nc2cscc21 (stereo not given) : melting point value = 86.5 to 88.5 °C

Note to self: melting point recorded for C[C@H]1CCCC(C)(C)[C@@H]1[C@H](O)c1ccc(C#N)c(C(F)(F)F)c1 was 118 to 119 °C

Consider CCOC(=O)NNC(=O)CC(F)=C(F)F . Its measured melting point is 110 °C

Data point: CCN1c2ncccc2C(=O)N(C)c2ccc(-c3cnn(CC)c3)nc21 ; melting point = 60 to 62 °C

Data point: Cc1cc2nc3c4cc(O)ccc4n(CCN(C)C)c3nc2cc1C ; melting point = > 260 °C

According to the records, this compound O=Cc1ccc(C(=O)Nc2ccc(C(F)(F)F)cc2)cc1 displays melting point of 173 °C

----------
Provide the reported melting point of each item.

The compound listed as COC(=O)CC(C(=O)OC)N1CCC(Nc2ncc3ncnc(Nc4cccc(Br)c4)c3n2)CC1 (stereo unspecified) shows melting point equal to 193 °C

The recorded melting point for COc1cc(F)c(F)cc1C=O is 74 °C

Notebook: O=C(C(=O)N1CCC(N2CCCCC2)CC1)c1ccc2n1Cc1ccccc1N(C(=O)c1ccc(C3CCCCC3)cc1)C2 , melting point read as 190 to 195 °C

Given item COC(=O)C(=C(/C)c1ccc(OC2CCCC2)c(OC)c1)/C(=C\c1ccccc1)C(N)=O , the value recorded as its melting point is 133 to 134 °C

Per the records, this compound ( O=C(O)c1cn(C2CC2)c2nc(N3CCC(n4ccnn4)CC3)c(F)cc2c1=O ) has melting point equal to 246 to 248 °C

Value of melting point reported for the compound O=c1cc(-c2ccccc2)oc(N2CCOCC2)c1 is 148 to 150 °C
